Value source: ChEMBL document CHEMBL4840365

experimental.details: AUC (0 to 24 hrs) in rat at 10 mg/kg, po
Format: ADME, organism-based
Set-up: time < 24 hr, route oral, dose 10 mg/kg
condition.context: in vivo
experimental.readout: AUC(0-t) at 24 h (µM·h)
// units = µM·h; emit number, no label

Query block: Give the measured AUC(0-t) at 24 h for CC(=O)N[C@@H]1C[C@H](NC(C)(C)C)CC[C@@H]1N1CC[C@H](Nc2ncnc3cc(C(C)(C)C)nn23)C1=O
Result block: 6.5

----------
experimental.details: Protein binding in mouse plasma assessed as unbound fraction at 1 uM by equilibrium dialysis method
Format: ADME, cell-free
experimental.readout: fraction unbound at 1 µM
Just the number.

Query block: Let me know recorded fraction unbound at 1 µM for CC(=O)N[C@@H]1C[C@H](NC(C)(C)C)CC[C@@H]1N1CC[C@H](Nc2ncnc3cc(C(C)(C)C)nn23)C1=O , thanks.
Result block: 0.58

----------
experimental.details: Protein binding in rat plasma assessed as unbound fraction at 1 uM by equilibrium dialysis method
Assay type: ADME, cell-free
experimental.readout: fraction unbound at 1 µM
Format: numeric value only, no unit, no commentary.

Query block: Answer with the recorded fraction unbound at 1 µM of CC(=O)N[C@@H]1C[C@H](NC(C)(C)C)CC[C@@H]1N1CC[C@H](Nc2ncnc3cc(C(C)(C)C)nn23)C1=O [BMS-813160] only.
Result block: 0.69

----------
experimental.details: AUC (0 to 24 hrs) in cynomolgus monkey at 1 mg/kg, po
Format: ADME, organism-based, Macaca fascicularis
Design: time < 24 hr, route oral, dose 1 mg/kg
condition.context: in vivo
experimental.readout: AUC(0-t) at 24 h (µM·h)
Field format: number, assumed µM·h, no unit text.

Query block: Using the record for CC(=O)N[C@@H]1C[C@H](NC(C)(C)C)CC[C@@H]1N1CC[C@H](Nc2ncnc3cc(C(C)(C)C)nn23)C1=O [BMS-813160] , state its measured AUC(0-t) at 24 h.
Result block: 1.3

----------
measured.target: C-C chemokine receptor type 4 (Homo sapiens)
Sequence (P51679 whole entry): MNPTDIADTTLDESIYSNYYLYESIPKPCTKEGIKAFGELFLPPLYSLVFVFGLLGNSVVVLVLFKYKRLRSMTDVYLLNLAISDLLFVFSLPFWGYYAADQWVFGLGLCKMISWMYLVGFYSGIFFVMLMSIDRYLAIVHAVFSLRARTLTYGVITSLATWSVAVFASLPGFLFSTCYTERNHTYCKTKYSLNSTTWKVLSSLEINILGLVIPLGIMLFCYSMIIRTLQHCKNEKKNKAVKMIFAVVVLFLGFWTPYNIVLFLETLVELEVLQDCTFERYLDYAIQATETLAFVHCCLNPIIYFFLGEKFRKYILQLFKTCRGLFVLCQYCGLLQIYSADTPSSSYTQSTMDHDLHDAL
experimental.details: Displacement of [125I]chemokine from CCR4 (unknown origin) by gamma counter method
experimental.readout: IC50

Query block: Tell me IC50 reported for CC(=O)N[C@@H]1C[C@H](NC(C)(C)C)CC[C@@H]1N1CC[C@H](Nc2ncnc3cc(C(C)(C)C)nn23)C1=O [BMS-813160]
Result block: > 40 µM

----------
experimental.details: Protein binding in human plasma assessed as unbound fraction at 1 uM by equilibrium dialysis method
Type: ADME, cell-free
experimental.readout: fraction unbound at 1 µM
Please state the value as a number alone, without comment.

Query block: Output measured fraction unbound at 1 µM for this item: CC(=O)N[C@@H]1C[C@H](NC(C)(C)C)CC[C@@H]1N1CC[C@H](Nc2ncnc3cc(C(C)(C)C)nn23)C1=O
Result block: 0.71

----------
experimental.details: Clearance in mouse at 2 mg/kg, iv
Assay type: ADME, organism-based
condition.context: in vivo
experimental.readout: clearance (L/h/kg)
Record the value in L/h/kg, omitting the unit from your answer.

Query block: Output clearance of CC(=O)N[C@@H]1C[C@H](NC(C)(C)C)CC[C@@H]1N1CC[C@H](Nc2ncnc3cc(C(C)(C)C)nn23)C1=O
Result block: 5.1
